- Species on record: Danio rerio
- procedure_text: Toxicity against zebrafish embryo assessed as normal embryos at 2.5 ug/ml measured at 96 hrs post fertilization by inverted microscopic analysis
- Format: organism-based
- stated_conditions: in vivo
I'd be grateful if you could share measured Activity for these entries.
Please give a number only; it is taken to be in %.

Exercise: // returns reported Activity for input Cc1ccc(-c2ccc(/C=N/NC(=N)N)s2)cc1.Cl
Key: 56.67

Exercise: // returns reported Activity for input Cl.Cl.N=C(N)N/N=C/c1ccc(-c2ccc(/C=N/NC(=N)N)s2)cc1
Key: 100

Exercise: // returns reported Activity for input C[C@@H](c1ncncc1F)[C@](O)(Cn1cncn1)c1ccc(F)cc1F
Key: 0

Exercise: // returns reported Activity for input Cl.N=C(N)N/N=C/c1ccc(-c2ccc(Br)cc2)s1
Key: 100
